Item-by-item account of Fold Enrichment relative to AAV9, Liver RNA (NHP)
- System: brains, heart, liver, muscle, and DRG of the NHPs
- experiment_notes: Maturation of TTM-001 and TTM-002 capsids, NGS enrichment in NHP tissues
- Format: in vivo
- reported_conditions: NGS fold-enrichment, NHP liver RNA, relative to AAV9 control
Your answer is read as fold, so omit the unit and give the number.

{"sequence_data": "KTERLSGSPHSKAQNQQT", "obs_value": 0.126}
{"sequence_data": "KTINGPGSPHSKAHNQQT", "obs_value": 0.000}
{"sequence_data": "KTINGSGSPHSKAQPAKT", "obs_value": 0.044}
{"sequence_data": "KTINGQDSPHKSGQHQQA", "obs_value": 0.193}
{"sequence_data": "KTEVGHDSPHKSGQNQQT", "obs_value": 0.000}
{"sequence_data": "KTVHGNGSPHSKAQNQQT", "obs_value": 0.000}

Query (sequence): `KTINGHDSPHKIGQNQHA` ; field requested: Fold Enrichment relative to AAV9, Liver RNA (NHP) 0.220

Query (sequence): `KTIKGNDSPHKSVQNQQT` ; field requested: Fold Enrichment relative to AAV9, Liver RNA (NHP) 0.263

Query (sequence): `KTISGHDSPHKTGHNQQT` ; field requested: Fold Enrichment relative to AAV9, Liver RNA (NHP) 0.730

Query (sequence): `KAINGPDSPHKSGQKQQT` ; field requested: Fold Enrichment relative to AAV9, Liver RNA (NHP) 0.323

Query (sequence): `KATNGSGSPHSKAQNHQT` ; field requested: Fold Enrichment relative to AAV9, Liver RNA (NHP) 0.155

Query (sequence): `KTINGNGSPHSKAQNPLT` ; field requested: Fold Enrichment relative to AAV9, Liver RNA (NHP) 0.366
